B1: Azoarcus group I ribozyme (parent)
chain: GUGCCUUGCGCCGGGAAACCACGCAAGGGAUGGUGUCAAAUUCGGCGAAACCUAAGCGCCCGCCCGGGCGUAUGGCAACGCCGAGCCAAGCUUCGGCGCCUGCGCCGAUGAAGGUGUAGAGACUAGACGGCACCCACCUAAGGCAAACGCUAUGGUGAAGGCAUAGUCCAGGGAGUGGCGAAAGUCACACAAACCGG

Variants of: B1
Test: reverse-splicing fitness (ratio to wild type); higher = more active; in vitro selection; Mg2+ level not given
reverse-splicing fitness vs 0.01: at or above is Met, below is Not met.

*Q* Kindly determine if reverse-splicing fitness recorded for C82U A120G A145U C150A C169A U176C is above or exactly 0.01.
*A* Not met

*Q* Evaluate A111C A120G A145G C150A C169U U176C : reverse-splicing fitness at minimum 0.01?
*A* Met

*Q* Item C82A A111U A120C A145G C150A C169U U176G with reverse-splicing fitness of 0.01 or above?
*A* Not met

*Q* Kindly determine if reverse-splicing fitness recorded for C82G A111C A120U A145U C150G U176C is above or exactly 0.01.
*A* Not met

*Q* Test whether the variant C82U A111C A120U A145G C169G U176C records reverse-splicing fitness of 0.01 or higher.
*A* Not met

*Q* In plain terms: is recorded reverse-splicing fitness at least 0.01 for C82U A120U C150G C169G U176C ?
*A* Not met

*Q* Has C82G A111G A120C C150G C169G U176C a recorded reverse-splicing fitness greater than or equal to 0.01?
*A* Met

*Q* Exam item: decide whether the reported reverse-splicing fitness for C82A A111C A120U C150G C169U U176C is at least 0.01.
*A* Not met

*Q* Please tell me: is the variant A111C A145C C150G C169U at or over 0.01 in terms of reverse-splicing fitness?
*A* Met

*Q* Tell me whether reverse-splicing fitness is at least 0.01 here: C82U A111C A145U C150G U176A
*A* Met

*Q* Is reverse-splicing fitness at least 0.01? Consider C82U A111U A120U A145U C169A U176G
*A* Not met

*Q* Exam item: decide whether the reported reverse-splicing fitness for C82U A111G A145G C150A C169G U176G is at least 0.01.
*A* Not met

*Q* Exam item: decide whether the reported reverse-splicing fitness for C82G A111C A120U A145C C150A C169G U176C is at least 0.01.
*A* Not met

*Q* Hello, I need to know if C82G A120U A145G C169G U176A has measured reverse-splicing fitness not below 0.01. Thanks!
*A* Not met

*Q* Could you please find out whether C82G A145G C150A C169U U176G has reverse-splicing fitness that meets 0.01 or exceeds it?
*A* Not met

*Q* Could you verify whether the entry A111G A120G A145C C150A C169G U176G shows reverse-splicing fitness of no less than 0.01?
*A* Not met

*Q* reverse-splicing fitness >= 0.01 for C82A A111G A120G A145G C150A C169U ?
*A* Not met

*Q* Could you verify whether the entry C82U A111C A120C A145G C150G U176A shows reverse-splicing fitness of no less than 0.01?
*A* Not met

*Q* Determine whether this variant has reverse-splicing fitness no lower than 0.01: C82G A111U A120G C150U C169A U176A
*A* Met

*Q* Confirm if reverse-splicing fitness reported for the variant C82G A120C A145G C150G C169G U176C is 0.01 or above.
*A* Met

*Q* Check the entry C82A A111C A120C A145G C150G C169A U176A : does reverse-splicing fitness equal or exceed 0.01?
*A* Met

*Q* Form field: reverse-splicing fitness at least 0.01? Entry: C82A A111U A145C C150A C169A U176C
*A* Not met

*Q* Decide: is the reported value of reverse-splicing fitness for C82A A120G A145C C150G C169G U176A equal to or greater than 0.01?
*A* Not met

*Q* reverse-splicing fitness >= 0.01 for A111C A120G A145C C150U ?
*A* Met

*Q* # check: reverse-splicing fitness of C82G A111G A120U A145U C150U C169U U176C is greater than or equal to 0.01
*A* Not met

*Q* Does the reported reverse-splicing fitness for C82U A111C A120G A145G C169A U176G fall at or above the 0.01 mark?
*A* Not met

*Q* Form field: reverse-splicing fitness at least 0.01? Entry: A111C A120C C169A
*A* Met

*Q* Does the reported reverse-splicing fitness for C82A A120U A145C C150G C169G U176C fall at or above the 0.01 mark?
*A* Not met

*Q* Threshold query (reverse-splicing fitness >= 0.01) on A111U A145U C150U C169U
*A* Met

*Q* Is the recorded value of reverse-splicing fitness equal to or greater than 0.01 for this variant? C82G A111U A120U A145U C169A U176G
*A* Not met

*Q* Can C169A U176G be said to have reverse-splicing fitness at or above 0.01?
*A* Not met

*Q* In plain terms: is recorded reverse-splicing fitness at least 0.01 for A111U A145C C150U U176G ?
*A* Met

*Q* Could you tell me if the measured reverse-splicing fitness of C82U A111G A120U A145U C150A C169U U176C reaches 0.01 or more?
*A* Not met

*Q* Threshold query (reverse-splicing fitness >= 0.01) on C82U A120U A145U C169G U176C
*A* Not met

*Q* Does C82A A111C A120U A145G C150A U176A have a reported reverse-splicing fitness of at least 0.01?
*A* Not met

*Q* Form field: reverse-splicing fitness at least 0.01? Entry: A111C A120U A145G C150A C169U
*A* Met

*Q* Please indicate if the recorded reverse-splicing fitness for C82G A111U A120G A145U C150G C169G U176C meets or exceeds 0.01.
*A* Not met

*Q* Would you say C82U A120G C150A C169A U176C shows reverse-splicing fitness at minimum 0.01?
*A* Met

*Q* Hi team, for C82G A111C A145C C150A C169A U176G , is the recorded reverse-splicing fitness at or above 0.01?
*A* Not met

*Q* # bool: reverse-splicing fitness of C82G A111C A120G A145C C169A >= 0.01
*A* Not met

*Q* State whether the measured reverse-splicing fitness reaches 0.01, counting equality as reaching it, for A111G A145C C150G C169U U176A
*A* Not met

*Q* For this variant, is measured reverse-splicing fitness 0.01 or higher? A120G C150G C169A
*A* Met

*Q* Reported reverse-splicing fitness at or above 0.01? C82A C169G
*A* Not met

*Q* I'd appreciate it if you could say whether C82A A111U A120C C150U C169U U176A has reverse-splicing fitness at least equal to 0.01.
*A* Met

*Q* Tell me whether reverse-splicing fitness is at least 0.01 here: C82U A120G A145G C150U U176C
*A* Met

*Q* Please check the record C82A A120C A145G C150U U176A and state if its reverse-splicing fitness is at or above 0.01.
*A* Met

*Q* Identify whether the reported reverse-splicing fitness of the following variant is 0.01 or greater: C82U A111C A120G A145G C150U U176G
*A* Not met

*Q* Please indicate if the recorded reverse-splicing fitness for A120C A145U C169U U176C meets or exceeds 0.01.
*A* Met

*Q* Check the entry A111G A120G U176A : does reverse-splicing fitness equal or exceed 0.01?
*A* Met

*Q* Test whether the variant C82A A111U A120G A145C C150G records reverse-splicing fitness of 0.01 or higher.
*A* Not met

*Q* Check this variant for reverse-splicing fitness at or above 0.01: C82A A120G A145U C150A C169G U176G
*A* Not met

*Q* Check the entry A111U A120C C150A : does reverse-splicing fitness equal or exceed 0.01?
*A* Met

*Q* In plain terms: is recorded reverse-splicing fitness at least 0.01 for C82A A111G A120C A145U C150G C169U U176A ?
*A* Not met

*Q* Is reverse-splicing fitness for A111U A145U C150A C169A U176A at or above 0.01?
*A* Met

*Q* Threshold query (reverse-splicing fitness >= 0.01) on A111U A120U C169U
*A* Met

*Q* Determine whether measured reverse-splicing fitness meets or exceeds 0.01 for A145G C150G C169A U176G
*A* Not met

*Q* Has C82G A145C C150A C169G U176C a recorded reverse-splicing fitness greater than or equal to 0.01?
*A* Met

*Q* Is the recorded value of reverse-splicing fitness equal to or greater than 0.01 for this variant? C82G A111C A120G A145U C150U U176C
*A* Met

*Q* Record A111U A120U A145U C169U ; criterion: reverse-splicing fitness no lower than 0.01. Met?
*A* Met

*Q* In plain terms: is recorded reverse-splicing fitness at least 0.01 for A111U A120U A145G U176G ?
*A* Met

*Q* Determine whether this variant has reverse-splicing fitness no lower than 0.01: C82A A145G C150A U176G
*A* Met

*Q* Evaluate C82U A111U A120U A145U C150A U176A : reverse-splicing fitness at minimum 0.01?
*A* Not met

*Q* Decide: reverse-splicing fitness of C82U A111U C150U C169G >= 0.01?
*A* Not met

*Q* Reported reverse-splicing fitness at or above 0.01? C82G A145U C150G C169G U176G
*A* Not met

*Q* In plain terms: is recorded reverse-splicing fitness at least 0.01 for A111C A145G C150U U176G ?
*A* Met

*Q* Does C82A A111C A120C C150A C169U U176C have a reported reverse-splicing fitness of at least 0.01?
*A* Met

*Q* Given the entry A120C A145G C169G U176C , answer whether its reverse-splicing fitness meets or surpasses 0.01.
*A* Met

*Q* Please check the record C82U A145C C150G C169U U176C and state if its reverse-splicing fitness is at or above 0.01.
*A* Not met

*Q* Could you verify whether the entry A111U A145G C150U C169U U176A shows reverse-splicing fitness of no less than 0.01?
*A* Met

*Q* Threshold query (reverse-splicing fitness >= 0.01) on C82G A120U A145U U176C
*A* Met

*Q* Would you say A120G A145U C150A C169G U176A shows reverse-splicing fitness at minimum 0.01?
*A* Met

*Q* Would you say C82U A111U C150G U176A shows reverse-splicing fitness at minimum 0.01?
*A* Not met

*Q* Does the reported reverse-splicing fitness for C82G A111U A120U A145U C150U C169A U176C fall at or above the 0.01 mark?
*A* Not met

*Q* Textbook exercise: given the entry A120C C150G C169G , state whether its reverse-splicing fitness is greater than or equal to 0.01.
*A* Not met

*Q* Textbook exercise: given the entry C82G A111G A120C A145U U176C , state whether its reverse-splicing fitness is greater than or equal to 0.01.
*A* Met

*Q* Quick check: does C82G A111C A120C C150G C169U U176G have reverse-splicing fitness greater than or equal to 0.01?
*A* Not met

*Q* // inclusive: reverse-splicing fitness at least 0.01? input: C82A A111G A120U A145G C150U U176G
*A* Not met

*Q* Please tell me: is the variant C82A A120U C150A C169A U176A at or over 0.01 in terms of reverse-splicing fitness?
*A* Not met

*Q* In plain terms: is recorded reverse-splicing fitness at least 0.01 for C82U A145C C150U C169G ?
*A* Not met

*Q* Does reverse-splicing fitness meet or surpass 0.01 for C82A A111G A120G A145C C150A C169G U176G ?
*A* Not met

*Q* Form field: reverse-splicing fitness at least 0.01? Entry: A111U A145C C150A U176A
*A* Met

*Q* Reported reverse-splicing fitness at or above 0.01? C82A A120G A145G C150G U176C
*A* Met

*Q* Item A111C A120U A145C C150G C169U with reverse-splicing fitness of 0.01 or above?
*A* Met

*Q* # bool: reverse-splicing fitness of A111U A120U A145C C150U >= 0.01
*A* Met

*Q* Please check the record A111G A120C C150G U176C and state if its reverse-splicing fitness is at or above 0.01.
*A* Met

*Q* Confirm if reverse-splicing fitness reported for the variant A111U A120U C150G U176G is 0.01 or above.
*A* Not met

*Q* Does the variant C82G A111G A120U A145C C150A C169G U176A have recorded reverse-splicing fitness that is 0.01 or more?
*A* Not met

*Q* Answer whether reverse-splicing fitness of C82U A111G A120C C150G C169G U176C is greater than or equal to 0.01.
*A* Not met

*Q* // inclusive: reverse-splicing fitness at least 0.01? input: A145G C150A C169U
*A* Met
